# tested_target: rat CBG (Rattus norvegicus, UniProt P31211)
# Construct: full-length cDNA in pcDNA3, secreted mature N-glycosylated protein from stably transfected CHO-S cells (also Lec1 and Lec2 lines), FPLC semi-purified or concentrated medium; no tag told
# Sequence (P31211 23-396): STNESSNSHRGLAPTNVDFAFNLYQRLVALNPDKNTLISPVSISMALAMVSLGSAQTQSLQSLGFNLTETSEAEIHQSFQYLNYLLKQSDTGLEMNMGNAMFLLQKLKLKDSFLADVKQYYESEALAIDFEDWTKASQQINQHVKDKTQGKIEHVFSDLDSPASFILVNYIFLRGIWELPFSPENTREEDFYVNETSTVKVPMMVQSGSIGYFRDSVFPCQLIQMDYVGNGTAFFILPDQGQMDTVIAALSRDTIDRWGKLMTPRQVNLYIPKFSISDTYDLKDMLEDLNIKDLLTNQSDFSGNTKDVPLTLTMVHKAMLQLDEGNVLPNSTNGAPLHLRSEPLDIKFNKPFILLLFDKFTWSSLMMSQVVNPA
# method_description: saturation binding, dextran-coated charcoal, Scatchard
assay_metric: pKd
Remember, pKd is on a log scale: it is -log10 of the molar concentration.

Value lookup for pKd; key = C[C@]12C[C@H](O)[C@H]3[C@@H](CCC4=CC(=O)CC[C@@]43C)[C@@H]1CC[C@@H]2C(=O)CO 8.68

---

# tested_target: human CBG (corticosteroid-binding globulin, SERPINA6) (Homo sapiens, UniProt P08185)
# Construct: full-length cDNA in pRc/CMV, secreted mature N-glycosylated protein from stably transfected CHO-S cells (also Lec1 and Lec2 lines), semi-purified by HiTrap QFF FPLC or concentrated medium; no tag told
# Sequence (P08185 23-405): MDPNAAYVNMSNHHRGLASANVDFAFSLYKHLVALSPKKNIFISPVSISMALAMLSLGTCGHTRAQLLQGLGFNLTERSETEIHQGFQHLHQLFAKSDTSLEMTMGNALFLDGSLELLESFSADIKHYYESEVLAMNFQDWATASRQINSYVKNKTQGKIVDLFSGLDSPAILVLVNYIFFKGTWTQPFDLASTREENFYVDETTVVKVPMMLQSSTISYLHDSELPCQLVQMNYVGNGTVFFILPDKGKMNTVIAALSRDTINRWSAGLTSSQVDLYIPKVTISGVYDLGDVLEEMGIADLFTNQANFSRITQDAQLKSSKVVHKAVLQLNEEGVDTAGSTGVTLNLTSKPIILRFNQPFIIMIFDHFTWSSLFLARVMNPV
# method_description: saturation binding, dextran-coated charcoal, Scatchard
assay_metric: Kd (nM)
Please reply with the bare figure in nM and do not write the unit itself.

Given the compound C[C@]12CCC(=O)C=C1CC[C@@H]1[C@@H]2[C@@H](O)C[C@@]2(C)[C@H]1CC[C@]2(O)C(=O)CO [cortisol] , what is its reported Kd? 1.1
